Numbers sourced from patent US20110318339A1.

targetOrTestSystem: T1, recombinant human DLL4 (Cat# 1506-D4/CF, R&D Systems) (human, UniProt Q9NR61 27-529)
T1 construct: Bought protein; also called hDLL4; rHuman DLL4
experimentDescription: ELISA, DLL4 coated, Fab 6.25 nM
ELISA absorbance at 450 nm reference
Your answer is read as A450, so omit the unit and give the number.

These recorded examples may help you get a feel for the data.
1. Fab VH1-46_IGHD6-6*01_IGHJ1*01 S102A/S103P/S104F/H111F & L6_IGKJ1*01 S28N/S30D/S31H (Fab, V domains shown, Fab made in E. coli: VH on CH1 with His6 and Flag tags (Plasmid A), VL on kappa CL (Plasmid C); also called H: APFF & L: NDH) VH: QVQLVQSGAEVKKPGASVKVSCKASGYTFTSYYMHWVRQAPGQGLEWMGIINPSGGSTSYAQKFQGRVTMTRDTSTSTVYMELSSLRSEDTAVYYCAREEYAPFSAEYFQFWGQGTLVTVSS VL: EIVLTQSPATLSLSPGERATLSCRASQNVDHYLAWYQQKPGQAPRLLIYDASNRATGIPARFSGSGSGTDFTLTISSLEPEDFAVYYCQQRSNWPPWTFGQGTKVEIKR = 0.125
2. Fab VH1-46_IGHD6-6*01_IGHJ1*01 S102A/S103P/S104F/H111F & L6_IGKJ1*01 S28N/S30D/S31H A55S (Fab, V domains shown, Fab made in E. coli: VH on CH1 with His6 and Flag tags (Plasmid A), VL on kappa CL (Plasmid C); also called H: APFF & L: NDH A55S) VH: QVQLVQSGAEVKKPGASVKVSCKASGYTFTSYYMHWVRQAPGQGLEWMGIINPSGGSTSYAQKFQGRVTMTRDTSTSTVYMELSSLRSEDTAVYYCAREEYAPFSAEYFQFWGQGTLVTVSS VL: EIVLTQSPATLSLSPGERATLSCRASQNVDHYLAWYQQKPGQAPRLLIYDASNRSTGIPARFSGSGSGTDFTLTISSLEPEDFAVYYCQQRSNWPPWTFGQGTKVEIKR = 0.154

Alright, here's another binder for you.
(Q) Look up ELISA absorbance at 450 nm for this binder: Fab VH1-46_IGHD6-6*01_IGHJ1*01 S102A/S103P/S104F/H111F & L6_IGKJ1*01 S28N/S30D/S31H S52T (Fab, V domains shown, Fab made in E. coli: VH on CH1 with His6 and Flag tags (Plasmid A), VL on kappa CL (Plasmid C); also called H: APFF & L: NDH S52T) VH: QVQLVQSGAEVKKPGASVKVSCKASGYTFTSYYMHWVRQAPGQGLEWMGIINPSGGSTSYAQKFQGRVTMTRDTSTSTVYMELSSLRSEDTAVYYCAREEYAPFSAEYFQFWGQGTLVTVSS VL: EIVLTQSPATLSLSPGERATLSCRASQNVDHYLAWYQQKPGQAPRLLIYDATNRATGIPARFSGSGSGTDFTLTISSLEPEDFAVYYCQQRSNWPPWTFGQGTKVEIKR
(A) 0.13
